Taken from patent US20090111825A1.

Assay: Determination of brain to plasma ratio in rat
Assay type: in vivo
Details: brain and plasma, female Sprague Dawley rats, drug in brain over drug in plasma, read-out: Brain/Plasma Ratio of compound in Rat
property_label: Kp

| mol | Kp |
| --- | --- |
| Cn1c(-c2ccn(C)c(=O)c2)nnc1N1CCC[C@@H]1c1cc(-c2csc(Cl)c2)on1 | 0.03 |

P. Cn1c(-c2cnn(C)c(=O)c2)nnc1N1CCC[C@@H]1c1cc(-c2csc(Cl)c2)on1
Q. Cn1c(-c2cn[nH]c(=O)c2)nnc1N1[C@@H](c2cc(-c3csc(Cl)c3)on2)C[C@H]2C[C@H]21
Parameter check: reported Kp is higher for which label, P or Q ? Label of pick, please.
P
(P: 0.16, Q: 0.06)

====

Target: human mGluR5d (Homo sapiens, UniProt P41594)
Sequence (P41594 21-942 isoform P41594-3 limits assumed): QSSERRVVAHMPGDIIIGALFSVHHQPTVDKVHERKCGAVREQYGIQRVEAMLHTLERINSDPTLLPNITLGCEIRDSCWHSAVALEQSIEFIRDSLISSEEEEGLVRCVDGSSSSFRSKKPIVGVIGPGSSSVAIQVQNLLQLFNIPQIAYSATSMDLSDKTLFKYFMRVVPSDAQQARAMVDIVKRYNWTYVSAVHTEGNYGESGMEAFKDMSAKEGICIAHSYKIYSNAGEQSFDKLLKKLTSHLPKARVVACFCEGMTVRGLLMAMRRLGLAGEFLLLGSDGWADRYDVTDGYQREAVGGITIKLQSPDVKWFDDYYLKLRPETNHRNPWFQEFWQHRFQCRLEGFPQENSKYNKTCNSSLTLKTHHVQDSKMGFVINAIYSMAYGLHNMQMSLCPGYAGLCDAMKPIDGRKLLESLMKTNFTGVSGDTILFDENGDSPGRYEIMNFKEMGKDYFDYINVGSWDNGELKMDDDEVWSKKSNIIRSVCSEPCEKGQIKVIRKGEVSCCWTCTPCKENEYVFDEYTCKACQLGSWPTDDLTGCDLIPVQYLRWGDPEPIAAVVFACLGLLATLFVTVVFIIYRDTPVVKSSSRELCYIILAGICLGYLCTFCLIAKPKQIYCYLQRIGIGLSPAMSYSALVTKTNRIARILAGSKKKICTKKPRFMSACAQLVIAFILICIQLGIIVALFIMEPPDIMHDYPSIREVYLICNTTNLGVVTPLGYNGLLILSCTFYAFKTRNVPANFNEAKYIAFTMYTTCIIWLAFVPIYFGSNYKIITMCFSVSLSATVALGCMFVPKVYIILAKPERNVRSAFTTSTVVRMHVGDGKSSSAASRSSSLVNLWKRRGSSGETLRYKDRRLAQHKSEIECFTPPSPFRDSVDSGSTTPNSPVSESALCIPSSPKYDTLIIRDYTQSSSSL
Test: FLIPR assay, mobilization of intracellular calcium in cells expressing human mGluR5d
Conditions: antagonism of agonist response, read-out: FLIPR hmGluR5d
property_label: IC50 (µM)

Worked cases, answers included:
| mol | IC50 / µM |
| --- | --- |
| Cn1c(-c2ccn(C)c(=O)c2)nnc1N1CCC[C@@H]1c1cc(-c2csc(Cl)c2)on1 | 0.044 |
| Cn1c(-c2cc[nH]c(=O)c2)nnc1N1CCC[C@@H]1c1cc(-c2csc(Cl)c2)on1 | 0.035 |
| Cn1c(-c2cn[nH]c(=O)c2)nnc1N1[C@@H](c2cc(-c3csc(Cl)c3)on2)C[C@H]2C[C@H]21 | 0.034 |
| Cn1c(-c2cc[nH]c(=O)c2)nnc1N1[C@@H](c2cc(-c3csc(Cl)c3)on2)C[C@H]2C[C@H]21 | 0.035 |

I. Cn1c(-c2cn[nH]c(=O)c2)nnc1N1CCC[C@@H]1c1cc(-c2csc(Cl)c2)on1
II. Cn1c(-c2cnn(C)c(=O)c2)nnc1N1CCC[C@@H]1c1cc(-c2csc(Cl)c2)on1
Parameter check: reported IC50 is higher for which label, I or II ? Label of pick, please.
II

====

Listed below: Kp values for each entry.
Assay: Determination of brain to plasma ratio in rat
Format: in vivo
Conditions: brain and plasma, female Sprague Dawley rats, drug in brain over drug in plasma, read-out: Brain/Plasma Ratio of compound in Rat

| mol | Kp |
| --- | --- |
| Cn1c(-c2cc[nH]c(=O)c2)nnc1N1CCC[C@@H]1c1cc(-c2csc(Cl)c2)on1 | < 0.01 |
| Cn1c(-c2cc[nH]c(=O)c2)nnc1N1[C@@H](c2cc(-c3csc(Cl)c3)on2)C[C@H]2C[C@H]21 | < 0.01 |

Switching to the query record.
Which Kp value is on record for Cn1c(-c2cn[nH]c(=O)c2)nnc1N1CCC[C@@H]1c1cc(-c2csc(Cl)c2)on1 ?
< 0.01
